- assay-comment: p53 small molecule agonists, cell-based qHTS assay with rat liver microsomes (AID 1963578); also: % is scaled to controls: 0 for no effect and ±100 for the full control effect
- measurement-context: HCT-116 p53RE-bla, beta-lactamase ratio, 16 h; series mostly up to 66 µM
Inconclusive results are not listed. Active and inactive are the calls of the source. Calls follow the shape of the full dose curve.
property-name: activation

Consider the worked cases shown below.
CCOC(=O)Cn1c(=O)sc2cccc(Cl)c21
inactive
CN(C)C(=O)C1(N2CCCCC2)CCN(CC[C@@]2(c3ccc(Cl)c(Cl)c3)CN(C(=O)c3ccccc3)CCO2)CC1
inactive
OC(CCN1CCCCC1)(c1ccccc1)c1ccccc1
inactive
CCCCCCOc1ccc(N)cc1
inactive
Cc1ccc(Cl)c(OCC(O)CNC(C)(C)C)c1 (stereo not given)
inactive

List activation for every entry below, keeping the order given.
1. COc1ccc(S(=O)(=O)N2c3ccc(Cl)cc3[C@@](O)(c3ccccc3Cl)[C@H]2C(=O)N2CCC[C@@H]2C(N)=O)cc1OC
2. O=C1OC(=O)c2cccc3cccc1c23
3. CC(C)=CCC/C(C)=C\C#N

Reply |
1. inactive
2. inactive
3. inactive

List activation for every entry below, keeping the order given.
1. CC(C)(c1ccc(Oc2ccc3c(c2)C(=O)OC3=O)cc1)c1ccc(Oc2ccc3c(c2)C(=O)OC3=O)cc1
2. CNC(=O)CN(CCN(CCN(CC(=O)[O-])CC(=O)NC)CC(=O)[O-])CC(=O)[O-].O.[Gd+3]

Reply |
["inactive", "inactive"]

---

- tested-system: Gonadotropin-releasing hormone receptor (Homo sapiens) (UniProt P30968)
- Sequence (P30968 whole entry, looked up): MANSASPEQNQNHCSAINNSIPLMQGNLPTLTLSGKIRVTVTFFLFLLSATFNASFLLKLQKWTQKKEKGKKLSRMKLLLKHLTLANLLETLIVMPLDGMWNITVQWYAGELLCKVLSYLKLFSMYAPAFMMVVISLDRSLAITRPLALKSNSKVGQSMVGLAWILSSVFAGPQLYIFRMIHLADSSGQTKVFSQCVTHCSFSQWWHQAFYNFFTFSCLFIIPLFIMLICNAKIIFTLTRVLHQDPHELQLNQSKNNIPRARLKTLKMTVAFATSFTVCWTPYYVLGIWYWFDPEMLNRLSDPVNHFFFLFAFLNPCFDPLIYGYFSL
- assay-comment: Human gonadotropin-releasing hormone receptor (GnRHR) small molecule agonists, calcium flux assay in GnRHR-HEK293 cells (AID 1920063); also: % is scaled to controls: 0 for no effect and ±100 for the full control effect; nearly all actives have a fitted effect of over 35% in size
- measurement-context: calcium flux fluorescence, agonist mode; series mostly up to 57.6 µM
Active and inactive are the calls of the source. Calls come from the whole dose curve.
property-name: activity change

Consider the worked cases shown below.
CCOC(=O)c1ccc(I)cc1
inactive
O=C1[C@H]2CCCC[C@H]2C(=O)N1CCCCN1CCN(c2nsc3ccccc23)CC1
inactive
CN(C)CCN(Cc1ccc(Cl)cc1)c1ccccn1
inactive
OCCCc1cccnc1
inactive
COc1ccc(OC)c(N=Nc2c(O)ccc3ccccc23)c1
inactive

List activity change for every entry below, keeping the order given.
1. O=C(COCCOCCOCC(=O)Nc1c(I)cc(I)c(C(=O)O)c1I)Nc1c(I)cc(I)c(C(=O)O)c1I
2. CC(C)(C)c1n[nH]c(=S)n(N)c1=O

Reply |
1: inactive; 2: inactive

---

Task for the reader: assign each of the following molecules its reported activity, negative = inhibition.
- tested-system: 5-hydroxytryptamine receptor 2A (Homo sapiens) (UniProt P28223)
- Sequence (P28223 whole entry, looked up): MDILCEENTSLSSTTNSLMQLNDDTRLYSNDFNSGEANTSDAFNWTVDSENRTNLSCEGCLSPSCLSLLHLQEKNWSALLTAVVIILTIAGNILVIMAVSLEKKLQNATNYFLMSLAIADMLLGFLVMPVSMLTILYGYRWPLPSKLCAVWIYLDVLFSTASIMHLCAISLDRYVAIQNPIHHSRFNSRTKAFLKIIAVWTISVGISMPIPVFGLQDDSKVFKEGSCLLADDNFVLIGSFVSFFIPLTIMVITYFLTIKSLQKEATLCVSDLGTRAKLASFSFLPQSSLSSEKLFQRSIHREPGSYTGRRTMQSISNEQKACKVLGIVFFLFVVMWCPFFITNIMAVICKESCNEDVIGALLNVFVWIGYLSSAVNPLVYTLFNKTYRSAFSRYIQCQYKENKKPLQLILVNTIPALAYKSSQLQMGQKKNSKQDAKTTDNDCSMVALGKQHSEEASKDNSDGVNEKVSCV
- assay-comment: 5-hydroxytryptamine receptor 2A (HTR2A) small molecule antagonists, cell-based qHTS assay (AID 1963586); also: % is scaled to controls: 0 for no effect and ±100 for the full control effect; nearly all actives have a fitted effect of over 45% in size
- measurement-context: HTR2A-CHO cells, DOI-induced calcium flux, fluorescence; series mostly up to 61.5 µM
Results filed as inconclusive are left out. The source made the active and inactive calls. The call rests on the fitted dose curve.

Consider the worked cases shown below.
S=C(SSSSSSC(=S)N1CCCCC1)N1CCCCC1
-4.42% [at 12.7 µM] (inactive)
Cc1cccn2c(=O)c(-c3nnn[nH]3)cnc12
5.08% [at 12.7 µM] (inactive)
C=CC(=C)CC/C=C(\C)CCC=C(C)C
22.2% [at 12.7 µM] (inactive)
CCCCCCCCCCCCS(=O)(=O)Cl
6.87% [at 12.7 µM] (inactive)

List activity, negative = inhibition for every entry below, keeping the order given.
1. CCCCCCCCCCOc1cc2c(=O)c(C(=O)OCC)c[nH]c2cc1OCC
2. CC1(C)CC(OC(=O)CCCCCCCCC(=O)OC2CC(C)(C)NC(C)(C)C2)CC(C)(C)N1

Reply |
1. 23.4% [at 5.62 µM] (inactive)
2. -5.05% [at 12.7 µM] (inactive)

List activity, negative = inhibition for every entry below, keeping the order given.
1. CCc1nccnc1CC
2. CCCCNc1ccc(NCCCC)c2c1C(=O)c1ccccc1C2=O
3. Oc1cn2c(n1)Nc1ccc(Cl)c(Cl)c1C2
4. CC(NN)c1ccccc1 (centres undefined)
5. CCCCCCCCCCCCCCN(C)C

Reply |
1. -8.77% [at 12.7 µM] (inactive)
2. -10.8% [at 12.7 µM] (inactive)
3. 4.4% [at 12.7 µM] (inactive)
4. 14.8% [at 12.7 µM] (inactive)
5. 2.96% [at 12.7 µM] (inactive)

List activity, negative = inhibition for every entry below, keeping the order given.
1. CCCCN1C=CN(C)C1
2. O=C=NCc1cccc(CN=C=O)c1
3. NC(Cc1ccc(Cl)cc1)C(=O)O (centres undefined)

Reply |
1: -10.9% [at 12.7 µM] (inactive); 2: 11.7% [at 12.7 µM] (inactive); 3: -30.9% [at 0.233 µM] (inactive)

List activity, negative = inhibition for every entry below, keeping the order given.
1. O=S(O)O
2. C[C@H]1NCc2cc(-c3ccc4c(=O)c(C(=O)O)cn(C5CC5)c4c3OC(F)F)ccc21

Reply |
1. -15% [at 12.7 µM] (inactive)
2. 1.4% [at 12.7 µM] (inactive)

List activity, negative = inhibition for every entry below, keeping the order given.
1. O=C(O)C[C@H](O)C[C@H](O)/C=C/c1c(C2CC2)nc2ccccc2c1-c1ccc(F)cc1
2. CCCCCCCCCCCCCCCCCO
3. O=S(O)(O)=S
4. CCCCCCCCCCCCCCCCCCOCCO

Reply |
-9.13% [at 12.7 µM] (inactive)
-18.1% [at 12.7 µM] (inactive)
5.27% [at 5.62 µM] (inactive)
-22.3% [at 12.7 µM] (inactive)

List activity, negative = inhibition for every entry below, keeping the order given.
1. C[N+]1(CC2COC(c3ccccc3)(c3ccccc3)O2)CCCCC1 (centres undefined)
2. O=C(O)c1ccc2c(c1)nc(C(=O)NC1CCN(C3CC3)CC1)n2Cc1cc(-c2ccc(Cl)s2)on1
3. [O]=[Bi]
4. BrC/C=C/CBr

Reply |
1: -7.46% [at 12.7 µM] (inactive); 2: -29.3% [at 12.7 µM] (inactive); 3: 2.38% [at 5.62 µM] (inactive); 4: -12.9% [at 12.7 µM] (inactive)
